Hi there, I'd appreciate the recorded PBM binding z-score for every entry that follows.
- Test system: RARb homodimer (NR concentration 270 nM)
- test.method.notes: PBM binding z-score (relative to random genomic background probes); higher = stronger binding; sequences stand for … in GC…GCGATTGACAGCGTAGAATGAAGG
Reply with the value as a number alone.

Value sought: PBM binding z-score, system RARb homodimer (NR concentration 270 nM), item CGTCAAAGTTCAACTAAGGTAACATAAAGCACGC . Result: 4.23

Record GCTAGTTCGTCAGTAAAAGGTCACACACCGGTCG has RARb homodimer (NR concentration 270 nM) PBM binding z-score equal to 5

Noted PBM binding z-score for GGAACGAGGGCATTCGAGATGATAGCATGGCGAT , tested on RARb homodimer (NR concentration 270 nM): 0.609

For GCTAGCAGGCCATTTGGGTCAGTCAATGACGGGC on RARb homodimer (NR concentration 270 nM), measured PBM binding z-score was 1.42

# GGAACGAGGGCAAGTTGATATCAGAGTTTGATGG with RARb homodimer (NR concentration 270 nM): PBM binding z-score is 1.7

PBM binding z-score value, target or system RARb homodimer (NR concentration 270 nM), for GCATACAGGTAATACAAGGTGAAAGTCCGATTGT : 1.04

Observed PBM binding z-score on RARb homodimer (NR concentration 270 nM), entry CGTCAAAGTTGAACTAAGGTAACGTAAAGCACGC , equals 1.98

Summary line: ATCTCTAGGTAAAGATAGTTGAGTGAATGCAAAT , RARb homodimer (NR concentration 270 nM), reported PBM binding z-score = -0.216

Entry ATCGAAAGGTCGACGGTGAGTATACCCACCCGAA : PBM binding z-score on RARb homodimer (NR concentration 270 nM) = 2.53

The reported RARb homodimer (NR concentration 270 nM) PBM binding z-score of GCTGCTAAGTCAGGTTGGTCAGCTAACGGGTACG is 0.212

Known value: RARb homodimer (NR concentration 270 nM) PBM binding z-score of the sequence ATTATTAGTTGAGACGAGGGCAACCGATAGGTTG equals 1.64

The measured PBM binding z-score that ACAGACAGCTGATGAAGGTAACTCAGGCTATCAT showed for RARb homodimer (NR concentration 270 nM) is -0.303

Tested on RARb homodimer (NR concentration 270 nM): TCATATAGCTAAAGGTGAAAGTCGAACGATATGA . Observed PBM binding z-score: 1.14

GET /values?item= GCTTGTAAATCAAGGTTAAGAAAGACTAAGCTAA &system= RARb homodimer (NR concentration 270 nM) returns PBM binding z-score: 0.189

The sequence ATATGTAGTTTAAGGGTCATTCAGGTTGGTTCGC on RARb homodimer (NR concentration 270 nM): PBM binding z-score was 3.9

Sample GCTAGCAGGCCATTTGGGTCACCCAATGACGGGC , system: RARb homodimer (NR concentration 270 nM). Its PBM binding z-score is 2.08

The recorded PBM binding z-score with RARb homodimer (NR concentration 270 nM) for ACTATTAGTTGAGACGAGAGCAACCGATAGGTTG was -0.441

Result for TCTGCTAGGTCTACGATGGTCAGCTAATCTGCTA , tested on RARb homodimer (NR concentration 270 nM), PBM binding z-score: -0.552

Form: item AATACCGGGTCACTAGGCCAGAGTAGGTACGAAT ; test system RARb homodimer (NR concentration 270 nM); PBM binding z-score: 2.74

Known value: RARb homodimer (NR concentration 270 nM) PBM binding z-score of the sequence ATCTCTAGGTAAAGATAGTTCATTGAATGCAAAT equals 1.46

Record TTACCAACGTGAGCTGAGGTCGTTGATCCAACTC has RARb homodimer (NR concentration 270 nM) PBM binding z-score equal to 0.839

The reported RARb homodimer (NR concentration 270 nM) PBM binding z-score of ATATGTAGGTTACATCCGGGTCATTTAGGCTATG is 2.76

Readout PBM binding z-score for TCGAGTAGGTTAGGCGCATTCAGAATGGCGTCGA , test system RARb homodimer (NR concentration 270 nM), was -0.314

Entry ACTTACGGGTCAGCGAGGTTATAGCACGCGTATA ; assay system RARb homodimer (NR concentration 270 nM); PBM binding z-score recorded at 3.53

The sequence TCATATAGGTAAACAGGTGAAAGTACGTAAGTTA , when measured on RARb homodimer (NR concentration 270 nM), yielded PBM binding z-score of 0.897

The reported PBM binding z-score value, RARb homodimer (NR concentration 270 nM), for GCTTGTAGAACAAGGTTAAGAAAGACTAAGCTAA reads -0.00172

Summary line: CCGACTGGGGCATAAGGTTACCAAAAGCCAGCCC , RARb homodimer (NR concentration 270 nM), reported PBM binding z-score = 1.97

Observed PBM binding z-score, RARb homodimer (NR concentration 270 nM), CCTAGCAGGCCAATCTGGGTCACGCAAGGCTTGA : 2.43

For CGTCCAAGGTAAAAGGTCAGTGAAGAGATGACGG on RARb homodimer (NR concentration 270 nM), measured PBM binding z-score was 4.88

// sequence CCGAGTAGGTAATGGGGCATTCAGGCAACGGTGA , assay RARb homodimer (NR concentration 270 nM), PBM binding z-score value: 0.64

RARb homodimer (NR concentration 270 nM) assay, sequence CTCGAAAGGTCGTGCTCAGGTGAATATACCAAAC , recorded PBM binding z-score = 3.06

Tested on RARb homodimer (NR concentration 270 nM), the item TCATGTAGATCAAAGGTTAAGAAAGCCGAAGCCT showed PBM binding z-score equal to 1.55

# PBM binding z-score measured on RARb homodimer (NR concentration 270 nM) for item TCTTGTAGATCAGCAGGTCAAGAAAGCTGGCCAA = 2.13

Hey, RARb homodimer (NR concentration 270 nM) data for ATCGAAAGGTCGTCAGGTGAGTATACAGAAAGGC : PBM binding z-score came out at 2.67

# value of PBM binding z-score, RARb homodimer (NR concentration 270 nM), item TCTTGTAGATCAAGCAAGTTAAGAAAGCCTGAGT = -0.703

Bench note, RARb homodimer (NR concentration 270 nM): TAGGCTAGGTCATGCGGGCCAGTATAGTGTCGGC , PBM binding z-score reads 3.1

The recorded PBM binding z-score with RARb homodimer (NR concentration 270 nM) for TTACCAAGGTAAGCTGAGGTCGTTGATCCAACTC was 0.571

Lab note: sequence ACAGACAGGTGAGTGAATGTAACTCAGCTGGACG tested on RARb homodimer (NR concentration 270 nM); recorded PBM binding z-score was -0.316

# PBM binding z-score measured on RARb homodimer (NR concentration 270 nM) for item AATACAGGGTCACTAGGCAAGAGTAGGTACGAAT = 2.95

Given the sequence GCTATTAGTTGAAAGGGCAACAGAATGATTCTCG and test system RARb homodimer (NR concentration 270 nM), the measured PBM binding z-score is 1.87

Recorded PBM binding z-score for ATATGTAGGTTACACCCGGGTCATTCAGGCTATG on RARb homodimer (NR concentration 270 nM) was 3.06

For AGTCAAAGTTCAGCTAGGTAACGTAAGATATGCT on RARb homodimer (NR concentration 270 nM), measured PBM binding z-score was 3.28

# PBM binding z-score measured on RARb homodimer (NR concentration 270 nM) for item GGAACGAGGGCAAAGTTGATAGCGTCTGTCGACG = 1.32

Summary: CGTCCAAGGTCAGCAGGTCCGTGAAAGCGACGTG , RARb homodimer (NR concentration 270 nM), PBM binding z-score = 4.13

Lab entry: RARb homodimer (NR concentration 270 nM) assay, sequence CGAACTAGGTCATTGACAGGACAGTGCATAGTAA , PBM binding z-score = 2.87

// sequence CGTCCAAGATCAGAGAGGTCAGTGAATGCCGAGT , assay RARb homodimer (NR concentration 270 nM), PBM binding z-score value: 3.9

Form field, PBM binding z-score with RARb homodimer (NR concentration 270 nM), item CCTACTGGGCCATCAGGTCCTTGATATCAACGTT : 0.0749

Entry TCTGCTAGGTCAGTCGGTCAGCTAACGAGCTGCC : PBM binding z-score on RARb homodimer (NR concentration 270 nM) = 3.32

Lab note: sequence CTCGAAAGGTCGCGCTCAGGTGAGTATACCAAAC tested on RARb homodimer (NR concentration 270 nM); recorded PBM binding z-score was 3.47

Log: RARb homodimer (NR concentration 270 nM), sequence CTCGAAAGGTCGTGCTCAGGTGAGGATACCAAAC , PBM binding z-score = 2.88

The reported RARb homodimer (NR concentration 270 nM) PBM binding z-score of CCTACTGGGCCACAAAAGGTCATTGATTCAGTGA is 4.58
